assay: protein stability index of a GFP-peptide fusion (GPS, HEK-293T) (PSI 1-6); higher = more stable; details: treatment: MLN4924 1 uM, 8 h; c terminus: a fixed tail appended;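 further: 24-mer peptide tiles fused after GFP, lentivirally expressed, FACS-sorted into six equal bins by GFP/DsRed ratio, decoded by Illumina sequencing, PSI is the read-weighted mean bin number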
Give measured protein stability index for each item. Keep answers brief.

Lookup: // protein stability index lookup, key: IRCVYILDPWFAGSSNVGINRWRF [CRY1]
Found: 3.06

Lookup: Also, SPVVAMTSRRSGVGLAVVNGQLMA [KLHL20] please.
Found: 2.95

Lookup: Queued: TRPKKMGSQLPKPRMLRESGHGDA [FATE1]
Found: 4.53

Lookup: Further, for QGTTVPAHRAILVARCEVMAAMFN [RHOBTB3] ?
Found: 2.17

Lookup: Record: QAPKSKSGSRPRKPPPRKHTRSWA [LRRC59]
Found: 4.15

Lookup: Quick one: KLGALLSRCRKLVEYFQQSAVAMY [ZBED1]
Found: 3.1

Lookup: Okay, and VLSLKEGAREEDLDAVEAQIGCKL [FBXO3] ?
Found: 4.6

Lookup: Continue with KCYLNGVKVPGIVRLRTLLCKVLG [CLCN6]
Found: 2.77

Lookup: Let us now turn to ELKTKLTKLEAEIVTLRHVLAAKE [TPD52L3]
Found: 3.64

Lookup: Now the same for PMPWLVLSEIFPGGIRGRAMALTS [SLC2A12]
Found: 2.33

Lookup: ACALLLTSVDHDRAPVVGVRVNVL [DLC1] , same question.
Found: 2.68

Lookup: Try the sequence VFNLFRTMGLRHLPVVNAVGEIVG [CLCN6]
Found: 2.29

Lookup: Consider next the sequence EGTNGQLDYSFGDHTSEAVRNLFG [PCDHGC5] in the same way.
Found: 3.9

Lookup: Further, for NQKCQLRLLKTLETSRSHDLEAVV [ATP23] ?
Found: 3.3

Lookup: Further, for GSSGPAGLTLGRSFSNYRPFEPQA [SEPHS2] ?
Found: 3.28

Lookup: Again, but for LYHRADVEKVLRRWVDEEWPKRER [EDARADD]
Found: 2.94

Lookup: Same thing, different sequence: AQRPGITHGVGLVLRVEQQPHLPL [SCNN1D]
Found: 2.85

Lookup: Do the same for VLSRLQDAAVVRPGFLSTAEEETL [ALKBH7] please
Found: 4.12

Lookup: Can you handle KGLLKKGACYGDDACFVARHRSAD [PPTC7] next?
Found: 4.05

Lookup: Field entry: AMEPEPAPAPAPEEWLDILGNGLL [FKBP8]
Found: 4.59

Lookup: Same again, this time with LEATVKKLEESKQLLKNNEKLITW [SASS6]
Found: 3.44

Lookup: Proceed to FWPAKVMQKEDNQVDVRFFGHHHQ [ZMYND11]
Found: 2.47

Lookup: Same question, MGRKRLITDSYPVVKRREGPAGHS [POLD4] this time
Found: 3.2

Lookup: What would you report for NISGHTNTNTLKVPECRLAEDLGN [SPOPL] ?
Found: 3.7

Lookup: How about EHQYRLPPMGKAFQELAGKELCAM [SPDEF] ?
Found: 3.23

Lookup: And what about the sequence RRMAESLRIPEGPIDQGPAIGRVR [FUT8] ?
Found: 4.43

Lookup: Proceed to TGRFSFTLPYPVKIKVRFSFFLQI [HACD3]
Found: 2.92

Lookup: Next entry: EFISSTKRPYAKELETVDFKDKLE [SERPINB5]
Found: 4.32

Lookup: Thanks! And MATQADLMELDMAMEPDRKAAVSH [CTNNB1] ?
Found: 4.95

Lookup: Next: MARNPAAIDMFIIGATFTDWFTSY [FBXO3]
Found: 2.84

Lookup: Check RCVKSIIRQVLQGLDYLHSKCKII [SRPK2] too.
Found: 2.79

Lookup: Continue with GCFTLPRSEPIRPIDPAAWVSHTA [DVL3]
Found: 3

Lookup: Repeat for the following sequence: GLDPCLLEDELDKSVQGTGLAFIA [SLC6A17]
Found: 3.28

Lookup: One more sequence: QAHELAYDPNYMSPFAQFACDNGL [PPTC7]
Found: 3.13

Lookup: Input PVQPGMLIDVCKYLGSLQYRVWKK [TRIM35]
Found: 2.17

Lookup: Same for KKNSNMTYEKLSRAMRYYYKREIL [ELF3]
Found: 2.27

Lookup: Same for RPMSEPGAGAGSSLLDVAEPGGPG [SMAD6]
Found: 5.39

Lookup: Next sequence up: IDCGKAFSQKSCLVAHQRYHTGKT [ZNF649]
Found: 2.87

Lookup: Can you handle PPSMVAAGSVVAAVQGLNLRSPNN [CCND1] next?
Found: 4.3

Lookup: Moving on to the next sequence: YRFLLYGLHEGKRLGPLSAEGTTG [TNXB]
Found: 2.29

Lookup: Please give the result for VYFKRFYARYSLKSIDPVLMAPTC [CCNC] too.
Found: 2.13

Lookup: Same for SYTTTTTITAPPSRVLQNGGDKLE [SCD]
Found: 4.81

Lookup: Request: APSCAIMISTYEFGKSFFQRLNQD [SLC25A39]
Found: 2.06

Lookup: Ok, now QRRTEASRNAADKERAAGGGAGSS [GOLPH3]
Found: 5.36

Lookup: // query: RLKKVENIKIWLSLRSYLKRRGPQ [PHTF1]
Found: 2.25
